- tested_on: UniProt P34969
- measurement_notes: Displacement of [3H]-5-HT from recombinant human 5-HT7A receptor expressed in CHOK1 cell membranes after 40 mins by liquid scintillation counting method
pKi: −log10 of the molar value.
measure_name: pKi

Would you please look over these solved cases?
smiles_str: O=c1cc(-c2ccccc2)ncn1CCCCCN1CCN(c2cccc(Cl)c2)CC1
assay_result: 7.02
--
smiles_str: O=c1cc(-c2ccccc2)ncn1CCCCCN1CCN(Cc2ccccc2)CC1
assay_result: 5.88
--
smiles_str: Cc1nc2ccccc2c(=O)n1CCCCCN1CCN(c2ccccc2)CC1
assay_result: 7.27
--
smiles_str: CCOc1ccccc1N1CCN(CCCCCn2c(C)nc3ccccc3c2=O)CC1
assay_result: 8.07
--
smiles_str: Cc1nc2ccccc2c(=O)n1CCCCCN1CCN(c2ccc(Cl)cc2)CC1
assay_result: 6.49

(I) O=c1cc(-c2ccccc2)ncn1CCCCCN1CCN(c2ccccc2)CC1
(II) CCOc1ccccc1N1CCN(CCCCCOc2cc(-c3ccccc3)ncn2)CC1
Prompt line: Hello, I am sorting some records. Could you say if I or II has the smaller pKi value? State your choice using its label.
Response line: I
(I: 6.21, II: 7.63)

* * *

- tested_on: 5-hydroxytryptamine receptor 1A (Homo sapiens)
- measurement_notes: Displacement of [3H]-8-OH-DPAT from recombinant human 5-HT1A receptor expressed in CHOK1 cell membranes after 1 hr by liquid scintillation counting method
measure_name: Ki (nM)

(a) CCOc1ccccc1N1CCN(CCCCCn2cnc(-c3ccccc3)cc2=O)CC1
(b) O=c1cc(-c2ccccc2)ncn1CCCCCN1CCN(c2cccc(Cl)c2)CC1
(c) Cc1nc2ccccc2c(=O)n1CCCCCN1CCN(c2ccc(Cl)cc2)CC1
(d) CCOc1ccccc1N1CCN(CCCCCn2c(C)nc3ccccc3c2=O)CC1
Prompt line: Hey, quick one: sort these by Ki, largest value first please. // rank by listing labels in the order requested
Response line: c, a, b, d

(1) Cc1nc2ccccc2c(=O)n1CCCCCN1CCN(c2ccccc2)CC1
(2) Cc1nc2ccccc2c(=O)n1CCCCCN1CCN(c2cccc(Cl)c2)CC1
Prompt line: Hello, I am sorting some records. Could you say if 1 or 2 has the smaller Ki value? State your choice using its label.
Response line: 2

(A) Clc1ccc(N2CCN(CCCCCOc3cc(-c4ccccc4)ncn3)CC2)cc1
(B) Cc1nc(OCCCCCN2CCN(c3ccc(Cl)cc3)CC2)c2ccccc2n1
Prompt line: Which of the two items, A and B , has the greater recorded Ki? State your choice using its label.
Response line: A
(A: 90.3 nM, B: 52.1 nM)

(1) O=c1cc(-c2ccccc2)ncn1CCCCCN1CCN(c2ccccc2)CC1
(2) c1ccc(-c2cc(OCCCCCN3CCN(c4ccccc4)CC3)ncn2)cc1
Prompt line: Which of the two items, 1 and 2 , has the greater recorded Ki? State your choice using its label.
Response line: 1

* * *

- tested_on: 5-hydroxytryptamine receptor 1A (Homo sapiens, UniProt P08908)
- Sequence (P08908 whole entry): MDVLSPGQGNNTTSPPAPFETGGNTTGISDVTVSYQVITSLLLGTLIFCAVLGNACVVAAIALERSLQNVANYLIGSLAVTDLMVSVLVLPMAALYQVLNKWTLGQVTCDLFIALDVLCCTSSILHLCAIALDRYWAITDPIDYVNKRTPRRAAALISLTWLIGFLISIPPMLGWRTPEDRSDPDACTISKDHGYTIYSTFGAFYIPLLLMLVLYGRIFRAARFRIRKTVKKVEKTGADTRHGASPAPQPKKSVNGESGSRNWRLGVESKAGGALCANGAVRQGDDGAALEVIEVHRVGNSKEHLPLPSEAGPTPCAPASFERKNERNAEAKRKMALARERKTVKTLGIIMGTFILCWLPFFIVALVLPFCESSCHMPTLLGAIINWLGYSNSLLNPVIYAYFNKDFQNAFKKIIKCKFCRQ
- measurement_notes: Displacement of [3H]-8-OH-DPAT from recombinant human 5-HT1A receptor expressed in CHOK1 cell membranes after 1 hr by liquid scintillation counting method
pKi: −log10 of the molar value.
measure_name: pKi

(I) O=c1cc(-c2ccccc2)ncn1CCCCCN1CCN(Cc2ccccc2)CC1
(II) Cc1nc(OCCCCCN2CCN(c3ccccc3)CC2)c2ccccc2n1
Prompt line: Hello, I am sorting some records. Could you say if I or II has the smaller pKi value? State your choice using its label.
Response line: I

(P) c1ccc(CN2CCN(CCCCCOc3cc(-c4ccccc4)ncn3)CC2)cc1
(Q) O=c1cc(-c2ccccc2)ncn1CCCCCN1CCN(c2ccc(Cl)cc2)CC1
Prompt line: Hello, I am sorting some records. Could you say if P or Q has the smaller pKi value? State your choice using its label.
Response line: P
(P: 5.99, Q: 6.78)

(A) CCOc1ccccc1N1CCN(CCCCCOc2cc(-c3ccccc3)ncn2)CC1
(B) Clc1cccc(N2CCN(CCCCCOc3cc(-c4ccccc4)ncn3)CC2)c1
Prompt line: Which of the two items, A and B , has the greater recorded pKi? State your choice using its label.
Response line: A

* * *

- tested_on: UniProtKB P34969
- measurement_notes: Displacement of [3H]-5-HT from recombinant human 5-HT7A receptor expressed in CHOK1 cell membranes after 40 mins by liquid scintillation counting method
pKi: −log10 of the molar value.
measure_name: pKi

Would you please look over these solved cases?
smiles_str: Clc1ccc(N2CCN(CCCCCOc3cc(-c4ccccc4)ncn3)CC2)cc1
measure_name: pKi
assay_result: 5.86
--
smiles_str: Clc1cccc(N2CCN(CCCCCOc3cc(-c4ccccc4)ncn3)CC2)c1
measure_name: pKi
assay_result: 7.35
--
smiles_str: O=c1cc(-c2ccccc2)ncn1CCCCCN1CCN(c2ccc(Cl)cc2)CC1
measure_name: pKi
assay_result: 5.88
--
smiles_str: Cc1nc2ccccc2c(=O)n1CCCCCN1CCN(c2cccc(Cl)c2)CC1
measure_name: pKi
assay_result: 7.45

(a) Cc1nc(OCCCCCN2CCN(c3ccccc3)CC2)c2ccccc2n1
(b) c1ccc(-c2cc(OCCCCCN3CCN(c4ccccc4)CC3)ncn2)cc1
Prompt line: Hello, I am sorting some records. Could you say if a or b has the smaller pKi value? State your choice using its label.
Response line: a
(a: 6.56, b: 6.84)

* * *

- tested_on: 5-hydroxytryptamine receptor 7 (Homo sapiens, UniProt P34969)
- Sequence (P34969 whole entry): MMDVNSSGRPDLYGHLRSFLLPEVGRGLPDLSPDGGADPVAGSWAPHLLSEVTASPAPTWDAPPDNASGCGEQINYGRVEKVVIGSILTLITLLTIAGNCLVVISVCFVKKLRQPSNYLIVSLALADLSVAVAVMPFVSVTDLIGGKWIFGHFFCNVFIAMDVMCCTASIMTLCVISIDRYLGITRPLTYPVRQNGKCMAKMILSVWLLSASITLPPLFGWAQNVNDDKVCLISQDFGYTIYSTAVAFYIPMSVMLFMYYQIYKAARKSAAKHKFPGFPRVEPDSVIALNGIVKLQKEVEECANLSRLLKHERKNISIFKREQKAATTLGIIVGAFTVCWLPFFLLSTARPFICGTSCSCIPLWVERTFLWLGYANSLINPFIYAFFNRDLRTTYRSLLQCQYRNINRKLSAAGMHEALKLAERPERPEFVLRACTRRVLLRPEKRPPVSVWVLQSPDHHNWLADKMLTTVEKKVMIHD
- measurement_notes: Displacement of [3H]-5-HT from recombinant human 5-HT7A receptor expressed in CHOK1 cell membranes after 40 mins by liquid scintillation counting method
measure_name: Ki (nM)

smiles_str: Cc1nc(OCCCCCN2CCN(c3ccc(Cl)cc3)CC2)c2ccccc2n1
assay_result: 181

(I) CCOc1ccccc1N1CCN(CCCCCn2cnc(-c3ccccc3)cc2=O)CC1
(II) c1ccc(CN2CCN(CCCCCOc3cc(-c4ccccc4)ncn3)CC2)cc1
Prompt line: Which of the two items, I and II , has the greater recorded Ki? State your choice using its label.
Response line: II
(II: 990 nM, I: 45.1 nM)
